Test: growth suppression of PTEN-deleted HCT116, pilot screen, cell-based, HCT116 clonal line, CellTiter-Glo (AID 824);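 also: 0% = 20 µM Hyamine control and 100% = vehicle cell control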
Conditions: 60 h, at 10 µM, active compounds read low
Results filed as inconclusive are left out.
Metric name: viability (%)
Give the quantity in %, number only.

In the examples that follow, each entry is paired with its recorded viability.
>  <Compound>
CCOC(=O)N1CCN(C(=O)CN(c2ccc(Cl)c(C(F)(F)F)c2)S(C)(=O)=O)CC1

>  <viability (%)>
90.3

$$$$
>  <Compound>
CC1=CC(C)(C)N(C(=O)CSc2nnc(-c3ccccc3)o2)c2ccc(C)cc21

>  <viability (%)>
66.2

$$$$
>  <Compound>
N#CC1=C(SCC(=O)Nc2ccccc2)NC(=O)CC1c1ccc(O)cc1 (stereo unspecified)

>  <viability (%)>
86.5

$$$$
>  <Compound>
COc1ccc(S(=O)(=O)N2CCC(C(=O)N3CCN(c4ccccc4OC)CC3)CC2)cc1

>  <viability (%)>
86.8

$$$$
>  <Compound>
CCn1c(C2CC(=O)N(c3ccc(C)c(C)c3)C2)nc2ccccc21 (stereo unspecified)

>  <viability (%)>
89.9

$$$$
>  <Compound>
COc1ccc(NC(=O)N2CCC(c3ccccc3)C2)c(OC)c1 (stereo unspecified)

>  <viability (%)>
90.2

$$$$
>  <Compound>
O=C(CSc1nc(-c2ccccc2)c(-c2ccccc2)o1)N1CCOCC1

>  <viability (%)>
89.6

$$$$
>  <Compound>
COc1ccc(-c2noc(-c3cccc(OC)c3OC)n2)cc1OC

>  <viability (%)>
94.3

$$$$

The reported value for `CCNc1nc2c(c(=O)n(C)c(=O)n2C)n1Cc1ccc(Cl)cc1` in terms of viability is 58.3

Item: O=C(Nc1cccnc1)C(Cc1ccccc1)n1cccc1 (stereo unspecified) | viability: 91.8

Just so you know, measured viability for `COc1ccc(OC)c(CCNC(=O)C2CCN(c3nnc(-n4cccc4)s3)CC2)c1` came out at 81.9

viability recorded for this compound, CCOC(=O)C1CCN(C(=O)c2oc3ccc(S(=O)(=O)N4CC(C)CC(C)C4)cc3c2C)CC1 (stereo unspecified) , is 52.7

What the record says about Cc1ccc(CC2C(=O)N(c3ncccn3)C(=O)C2C)cc1 (stereo unspecified) : viability is 93.1

Recorded viability (compound `COc1cccc(-c2nn(C)c3sc(C(=O)NCc4ccc5c(c4)OCO5)cc23)c1` ): 82.7

According to the records, this compound `Cc1nn(-c2cccc(C(F)(F)F)c2)c(Cl)c1/C=N/n1cnnc1` displays viability of 85.7

###

Assay: HUVEC growth inhibition – cell-based, human, primary screen (AID 575);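 also: 100% = median of untreated cell wells with 0.1% DMSO on each plate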
Settings: HUVEC proliferation, CellTiter-Glo luminescence, 72 h; at 10 µM; active compounds read low
Mark each entry condition met if its viability sits below 90%, and condition not met for all others.

Examples from the recorded data:
>  <Molecule>
Cc1nc2ccccc2c2c1C(=O)N(CCC1=CCCCC1)C2=O

>  <Group>
condition not met

$$$$
>  <Molecule>
Cc1nc2c(o1)CCc1ccccc1C2O (stereo unspecified)

>  <Group>
condition not met

$$$$
>  <Molecule>
CN(C(=O)COc1cc(=O)n(C)c2ccccc12)c1ccc(Br)cc1

>  <Group>
condition met

$$$$
>  <Molecule>
CS(=O)(=O)N1CCN(c2ccccc2NC(=O)c2ccc(-c3ccc(Cl)cc3Cl)o2)CC1

>  <Group>
condition met

$$$$
>  <Molecule>
Cc1cccc2cc(CN(CCN3CCCC3)C(=O)NC3CCCCC3)c(=O)[nH]c12

>  <Group>
condition met

$$$$
>  <Molecule>
Cc1cccc(C)c1OCc1nnc2c3cnn(C)c3ncn12

>  <Group>
condition not met

$$$$
>  <Molecule>
Cc1ccc2cc3cc(C(=O)N4CC(C)CC(C)C4)oc3nc2c1 (stereo unspecified)

>  <Group>
condition met

$$$$

Enquiry: Identify whether the molecule `O=C(c1c(F)cccc1F)N(Cc1ccccn1)C1CCCC1` records viability below 90%.
Return: condition not met

Taken from PubChem BioAssay.
